MEASUREMENT TARGET: full-length DENV3 NS5 (Dengue virus type 3, UniProt P27915)
METRIC NAME: pIC50
One number for each entry, as −log10 of the molar value.

Prompt: Give me measured pIC50, please, for this molecule: CC(=O)Oc1ccc2oc(=O)sc2c1 [RK-0404678, (2-Oxo-1,3-benzoxathiol-5-yl) acetate]
Response: 3.54

====

Test system: DENV4 (H241 strain)
ASSAY COMMENT: Cell-based antiviral assay, viral RNA in supernatant of infected Vero cells (RT-qPCR)
CONDITION DETAILS: 72 h, viral RNA 3 days after infection
METRIC NAME: EC50 (µM)
Numbers only, in µM.

Prompt: In one line, give reported EC50 of the entry CC(=O)Oc1ccc2oc(=O)sc2c1 [RK-0404678, (2-Oxo-1,3-benzoxathiol-5-yl) acetate] .
Response: 31.9

====

Test system: recombinant DENV2 (WT, C780A, C780Q NS5)
Type: cell-based
CONDITION DETAILS: DENV2 NS5 C780Q mutant virus (Site 1)
METRIC NAME: EC50 (µM)
Numbers only, in µM.

Prompt: // fetch EC50 given entry CC(=O)Oc1ccc2oc(=O)sc2c1 [RK-0404678, (2-Oxo-1,3-benzoxathiol-5-yl) acetate]
Response: 12.8
